Test system: K-562 leukemia
Assay Explanation: NCI tumour cell line growth inhibition, 48 h; in the data active = GI50 below about 0.43 µM; inactive = the rest
Outcome codes: yes = active, no = inactive

- Mol Smiles: "N#Cc1cccc(NC(=O)c2cc(-c3ccc(F)cc3F)ccc2O)c1"
  Category: "no"
- Mol Smiles: "Nc1nc(-c2cccc(Cl)c2)c(-c2ccc3ncccc3n2)s1"
  Category: "no"
- Mol Smiles: "COc1cc(NS(=O)(=O)c2ccc(-c3cnc(C4CC4)o3)cc2)ccc1F"
  Category: "yes"
- Mol Smiles: "c1cc[c]([Pb]([c]2ccccc2)[c]2ccccc2)cc1"
  Category: "no"

----------
Tested on: UO-31 renal
Assay Explanation: NCI tumour cell line growth inhibition, 48 h

- Compound: "Fc1ccc(C2SCc3nc4ccccc4n32)cc1Cl (configuration not stated)"
  Unit Info: "µM"
  Censoring Sign: "="
  TGI: 43.5
- Compound: "CN(C)C(c1ccccc1)C(O)c1ccccc1 (configuration not stated)"
  Unit Info: "µM"
  Censoring Sign: ">"
  TGI: 100
- Compound: "CC[CH2][Sn]([Cl])([Cl])[CH2]CC.Oc1ccccc1C=NCCN=Cc1ccccc1O"
  Unit Info: "µM"
  Censoring Sign: "="
  TGI: 21.5
- Compound: "Clc1ccc(-c2c(C3=NCCCN3)nnn2-c2ccc(Cl)cc2)cc1"
  Unit Info: "µM"
  Censoring Sign: "="
  TGI: 90.4
- Compound: "O=c1c2cc(S(=O)(=O)O)ccc2nc(COc2ccc(Oc3ccc(Cl)cc3Cl)cc2)n1-c1ccc(Cl)cc1Oc1c(Cl)cccc1Cl"
  Unit Info: "µM"
  Censoring Sign: "="
  TGI: 37
- Compound: "N#C/C(=C\\c1cc2ccccc2c2ccccc12)c1ccccc1"
  Unit Info: "µM"
  Censoring Sign: "="
  TGI: 57.7
- Compound: "CNc1nc(N)c(N=O)c(Nc2ccc(Br)cc2)n1"
  Unit Info: "µM"
  Censoring Sign: ">"
  TGI: 100
- Compound: "C=C1CC[C@@H]2[C@](C)(COC(C)=O)[C@H](OC(C)=O)CC[C@@]2(C)[C@@H]1CC(Nc1ccc(S(=O)(=O)Nc2ncccn2)cc1)C1=CCOC1=O (some centres not stated)"
  Unit Info: "µM"
  Censoring Sign: "="
  TGI: 2.97
- Compound: "O=C1/C(=C/c2ccc(O)cc2)CSc2ccc(Cl)cc21"
  Unit Info: "µM"
  Censoring Sign: "="
  TGI: 29.1
- Compound: "CC1(C)CC(=O)C(/C=N/c2nc(-c3ccccc3)cs2)=C(O)C1"
  Unit Info: "µM"
  Censoring Sign: ">"
  TGI: 100
- Compound: "COC(=O)c1cc(C)c(C)c2c1NC(=O)CNC2=O"
  Unit Info: "µM"
  Censoring Sign: "="
  TGI: 91.6
- Compound: "CCCCCCC(=O)C/C(=N/NC(N)=S)C(=O)NC1C2CC3CC(C2)CC1C3 (configuration not stated)"
  Unit Info: "µM"
  Censoring Sign: ">"
  TGI: 100
- Compound: "COc1cc2c3c(n(CCNCCCNCCn4c5c(c6cc(OC)c(OC)cc6c4=O)C(=O)c4ccccc4-5)c(=O)c2cc1OC)-c1ccccc1C3=O"
  Unit Info: "µM"
  Censoring Sign: ">"
  TGI: 100
- Compound: "C/C(=C1/CCC/C(=C(/C)c2ccccc2)C1=O)c1ccccc1"
  Unit Info: "µM"
  Censoring Sign: ">"
  TGI: 100
- Compound: "CC(=O)OCCOCn1cnc2c(Cl)nc(Cl)nc21"
  Unit Info: "µM"
  Censoring Sign: "="
  TGI: 36.4
- Compound: "CC(=O)OC1(C)C=CC(=O)C=C1"
  Unit Info: "µM"
  Censoring Sign: "="
  TGI: 46.4
- Compound: "CC1(C)N=C(N)N=C(N)N1c1ccc(OCc2ccc(S(=O)(=O)F)c(Cl)c2)c(Cl)c1"
  Unit Info: "µM"
  Censoring Sign: ">"
  TGI: 100
- Compound: "Cc1ccc(C)c(COCCOCn2ccc(N)nc2=O)c1"
  Unit Info: "µM"
  Censoring Sign: ">"
  TGI: 100
- Compound: "CCCCN1CSC(=S)N(Cc2ccccc2)C1"
  Unit Info: "µM"
  Censoring Sign: ">"
  TGI: 100
- Compound: "COc1ccc(/C=C\\c2cc(OC)c(OC)c(OC)c2)cc1OC(=O)NCCN(C)C"
  Unit Info: "µM"
  Censoring Sign: ">"
  TGI: 63.2
- Compound: "O=C1C(Cl)C(c2cccc(Cl)c2)N1c1ccc(-n2c(=S)[nH]c3ccccc3c2=O)cc1 (configuration not stated)"
  Unit Info: "µM"
  Censoring Sign: "="
  TGI: 49
- Compound: "Fc1ccc(-c2nn3ncccc3c2-c2ccnc(Nc3ccc4c(c3)OCCO4)n2)cc1"
  Unit Info: "µM"
  Censoring Sign: ">"
  TGI: 25
- Compound: "COc1ccc(/C(Cl)=C(\\C=O)c2ccc([N+](=O)[O-])cc2)cc1"
  Unit Info: "µM"
  Censoring Sign: "="
  TGI: 56.2
- Compound: "Cc1ccc2c(c1)C1(C)OC(C=CC1=O)O2 (configuration not stated)"
  Unit Info: "µM"
  Censoring Sign: "="
  TGI: 2.36
- Compound: "NC(N)=N/N=C/c1c(-c2cccc([N+](=O)[O-])c2)nc2n1CCS2"
  Unit Info: "µM"
  Censoring Sign: "="
  TGI: 30.6
- Compound: "C=CC1(C)CCC2=C(CCC3C(C)(C(=O)OC)CCCC23C)C1=O (configuration not stated)"
  Unit Info: "µM"
  Censoring Sign: "="
  TGI: 42.8
- Compound: "COc1ccc(-c2cc(=O)c3ccccc3[nH]2)c(OC)c1"
  Unit Info: "µM"
  Censoring Sign: ">"
  TGI: 100
- Compound: "CCO/N=C(/N)c1ncn(Cc2ccccc2)c1NCC(OCC)OCC"
  Unit Info: "µM"
  Censoring Sign: ">"
  TGI: 100
- Compound: "Cc1ccc2[nH]c(C(=O)NN3C(=O)C(C)SC34CCCC(C)C4)c(-c3ccccc3)c2c1 (configuration not stated)"
  Unit Info: "µM"
  Censoring Sign: ">"
  TGI: 100
- Compound: "O=C1CCCCC2N(C(c3ccccc3)c3ccccc3)CC[C@@]12c1ccccc1 (mixture of isomers)"
  Unit Info: "µM"
  Censoring Sign: ">"
  TGI: 10
- Compound: "CC12CCC([C@H](C(O)C3CCCCC3)C1=O)C2(C)C (some centres not stated)"
  Unit Info: "µM"
  Censoring Sign: ">"
  TGI: 100
- Compound: "NCCCn1c2c(c3ccc([N+](=O)[O-])cc3c1=O)C(=O)c1cc(Br)ccc1-2"
  Unit Info: "µM"
  Censoring Sign: "="
  TGI: 0.184
- Compound: "CN1C(=O)c2ccccc2NC(=O)C12O[C@@H]2c1cccc(O)c1 (some centres not stated)"
  Unit Info: "µM"
  Censoring Sign: ">"
  TGI: 100
- Compound: "Cc1ccc(/C=C2\\CCC/C(=C\\c3ccc(O)c(CN4CCCCC4)c3)C2=O)cc1"
  Unit Info: "µM"
  Censoring Sign: "="
  TGI: 23.3
- Compound: "Cc1[nH]c2ccccc2c1C1Cc2ccccc2N1C(=O)/C(Cl)=C/c1ccccc1 (configuration not stated)"
  Unit Info: "µM"
  Censoring Sign: ">"
  TGI: 100
- Compound: "CCOc1ccc2c(c1)[n+]([O-])c(-c1nc3ccccc3s1)c(N)[n+]2[O-]"
  Unit Info: "µM"
  Censoring Sign: "="
  TGI: 96.3
- Compound: "CCOP(=O)(O)C1C(CO)OC(n2ccc(=O)[nH]c2=O)C1O (configuration not stated)"
  Unit Info: "µM"
  Censoring Sign: ">"
  TGI: 100
- Compound: "CCN(CC)CC(=O)O[C@]1(CC)C(=O)OCc2c1cc1n(c2=O)Cc2cc3ccccc3nc2-1"
  Unit Info: "µM"
  Censoring Sign: "="
  TGI: 0.182
- Compound: "O=S1(=O)N(CCNc2nccc(-c3c(-c4cccc(O)c4)nc4sccn34)n2)CCN1Cc1ccccc1"
  Unit Info: "µM"
  Censoring Sign: "="
  TGI: 39.3
- Compound: "N#Cc1cccc(NC(=O)c2cc(-c3ccc(F)cc3F)ccc2O)c1"
  Unit Info: "µM"
  Censoring Sign: "="
  TGI: 6.99
- Compound: "COc1cc(O)c2c(c1)OCC(Cc1ccc(O)cc1)C2=O (configuration not stated)"
  Unit Info: "µM"
  Censoring Sign: ">"
  TGI: 100
- Compound: "O=C1CCCC2(c3ccccc3)Nc3ccccc3N12 (configuration not stated)"
  Unit Info: "µM"
  Censoring Sign: ">"
  TGI: 100
